Target: AHR (UniProt P35869)
Construct: IC50
Test: DRE-Luciferase Reporter Assay (Alternate Method) (Example 1B)
Format: cell-based, murine or human
Details: cell line and AHR activating ligand not specified
Protocol: AHR binds to Dioxin Responsive Elements (DRE) upstream of genes that it activates. One measure of AHR activity is activation of a reporter gene, such as luciferase, downstream of one or multiple DRE elements. […] Cells were incubated for 4, 15 or 24 hours or another time point and then lysed for determination of luciferase activity as a read-out of the AHR activation or inhibition. […] IC50 values were determined as the concentration which inhibits half of the luciferase activity.
Measured attribute: IC50

Some solved cases for reference:
Compound	Assay target	IC50
NC(=O)c1cnn2c(NCCc3c[nH]c4ccccc34)cc(-c3cncc(F)c3)nc12	AHR (UniProt P35869)	< 500 nM
CNC(=O)c1cnn2c(NCCc3c[nH]c4ccccc34)cc(-c3cncc(F)c3)nc12	AHR (UniProt P35869)	< 500 nM
Fc1cncc(-c2nc(NCCc3c[nH]c4ccccc34)c3ccsc3n2)c1	AHR (UniProt P35869)	< 500 nM
Cc1[nH]c2c(F)cc(F)cc2c1CCNc1cc(-c2cncc(F)c2)nc2c(C3CC3)cnn12	AHR (UniProt P35869)	< 500 nM
CC(C)c1cnn2c(NC3CCc4[nH]c5ccccc5c4C3)nc(N3CCN(C)CC3)nc12 (stereo not drawn)	AHR (UniProt P35869)	> 1500 nM

Pending compound:
For Fc1cncc(-c2nc(NC3CCc4[nH]c5ccccc5c4C3)n3ncc(CNC4CC4)c3n2)c1 (stereo not drawn) the compound record lists IC50 as < 500 nM

---

Answer each item with its documented IC50.
Molecular target: AHR (UniProt P35869)
Construct: IC50
Assay: DRE-Luciferase Reporter Assay (Alternate Method) (Example 1B)
Format: cell-based, murine or human
Settings: cell line and AHR activating ligand not specified

Please review the following examples before continuing.
Compound	Recorded value
Fc1cncc(-c2nc(N[C@@H]3CCc4[nH]c5ccccc5c4C3)n3ncc(-c4ccn[nH]4)c3n2)c1 [I-253]	< 500 nM
Cc1cnn2c(NCC3(c4c[nH]c5ccccc45)CC3)cc(-c3cncc(F)c3)nc12 [I-167]	> 1500 nM

Respectfully, I request IC50 for each entry included below.
1. CC(C)c1cnn2c(NC3CCc4[nH]c5ccccc5c4C3)nc(C3CCCCC3)nc12 (centres unmarked) [I-268]
2. Cc1c(-c2cncc(F)c2)nc2c(C)cnn2c1NCCc1c[nH]c2ccccc12 [I-169]
3. CC(=O)Nc1ccc(CCNc2cc(-c3cncc(F)c3)nc3c(C)cnn23)cc1 [I-206]
4. CC(C)n1cnc2c(NCCc3c[nH]c4c(F)cc(F)cc34)nc(-c3cncc(F)c3)nc21 [I-23]
5. CN(C)c1cnn2c(N[C@@H]3CCc4[nH]c5ccccc5c4C3)cc(-c3cncc(F)c3)nc12 [I-175]
6. Cc1[nH]c2c(F)cc(F)cc2c1CCNc1cc(-c2cncc(F)c2)nc2ccnn12 [I-85]

OUTPUT:
["> 1500 nM", "500 to 1000 nM", "> 1500 nM", "< 500 nM", "> 1500 nM", "500 to 1000 nM"]

---

Assignment: determine reported pIC50 for the given molecules.
Target: AHR (UniProt P35869)
Construct: IC50
Sequence (P35869 1-848): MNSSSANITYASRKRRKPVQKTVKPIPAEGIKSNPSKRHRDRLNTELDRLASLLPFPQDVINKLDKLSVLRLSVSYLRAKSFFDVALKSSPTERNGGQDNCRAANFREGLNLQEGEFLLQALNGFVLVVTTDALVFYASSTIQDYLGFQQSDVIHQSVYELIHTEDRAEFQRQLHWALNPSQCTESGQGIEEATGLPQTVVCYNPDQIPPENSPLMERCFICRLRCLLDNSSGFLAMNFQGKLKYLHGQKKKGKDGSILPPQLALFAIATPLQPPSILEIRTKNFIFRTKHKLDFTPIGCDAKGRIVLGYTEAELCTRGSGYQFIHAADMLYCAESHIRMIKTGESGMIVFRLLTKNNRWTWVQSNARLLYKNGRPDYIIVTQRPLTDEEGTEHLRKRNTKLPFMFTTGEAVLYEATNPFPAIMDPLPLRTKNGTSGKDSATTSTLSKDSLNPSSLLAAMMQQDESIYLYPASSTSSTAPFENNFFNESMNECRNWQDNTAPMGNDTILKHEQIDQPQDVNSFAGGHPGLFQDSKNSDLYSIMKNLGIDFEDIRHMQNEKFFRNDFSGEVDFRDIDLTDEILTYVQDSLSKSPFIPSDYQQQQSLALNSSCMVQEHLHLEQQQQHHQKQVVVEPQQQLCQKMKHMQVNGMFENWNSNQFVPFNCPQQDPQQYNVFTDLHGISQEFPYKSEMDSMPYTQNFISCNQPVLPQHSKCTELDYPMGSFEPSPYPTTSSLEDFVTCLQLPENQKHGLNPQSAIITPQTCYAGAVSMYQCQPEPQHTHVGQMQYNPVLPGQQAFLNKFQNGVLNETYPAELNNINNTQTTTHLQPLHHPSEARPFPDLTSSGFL
Assay: DRE-Luciferase Reporter Assay (Alternate Method) (Example 1B)
Type: cell-based, murine or human
Settings: cell line and AHR activating ligand not specified
pIC50: −log10 of the molar value.

Record excerpt, results attached:
Molecule	pIC50
CC(C)N(C)c1cc(NCCc2c[nH]c3ccccc23)nc(-c2cncc(F)c2)n1	> 6.30
Cc1[nH]c2c(F)cc(F)cc2c1CCNc1cc(-c2cncc(F)c2)nc2c(C(C)C)cnn12	> 6.30
Cc1cnn2c(N[C@H](Cc3c[nH]c4ccccc34)C(=O)N(C)C)cc(-c3cncc(F)c3)nc12 [I-187a]	< 5.82
Cc1cnn2c(NCCc3c[nH]c4cccnc34)nc(-c3cncc(F)c3)nc12	6.00 to 6.30
Fc1cncc(-c2cc(NCCc3c[nH]c4cccnc34)n3ncc(Br)c3n2)c1	6.00 to 6.30
CN1CCN(C(=O)c2cnn3c(NCCc4c[nH]c5ccccc45)cc(-c4cncc(F)c4)nc23)CC1	6.00 to 6.30

The following molecules each have a reported value; give each one's pIC50.
1. O=C(O)c1cnn2c(NC[C@@H](O)c3c[nH]c4ccccc34)cc(-c3cncc(F)c3)nc12 [I-158b]
2. CN(C)C(=O)c1cnn2c(NC3CCc4[nH]c5ccccc5c4C3)nc(-c3cncc(F)c3)nc12 (centres unmarked)
3. CC(C)c1cnn2c(NCCc3c[nH]c4ccccc34)cc(-c3cccc(F)c3)nc12

OUTPUT:
1. < 5.82
2. > 6.30
3. > 6.30

---

So I've got a bunch of compounds here, and I need their IC50 values.
Target: AHR (UniProt P35869)
Construct: IC50
Test: DRE-Luciferase Reporter Assay (Alternate Method) (Example 1B)
Assay type: cell-based, murine or human
Conditions: cell line and AHR activating ligand not specified

Some entries whose results are on file:
Compound	IC50
CC(C)c1cnn2c(NC3CCc4[nH]c5ccccc5c4C3)nc(-c3ccnnc3)nc12 (centres unmarked)	500 to 1000 nM
Fc1cncc(-c2nc(N[C@@H]3CCc4[nH]c5ccccc5c4C3)n3ccnc3n2)c1	> 1500 nM
Cc1cnn2c(NCCc3cccc(O)c3)cc(-c3cncc(F)c3)nc12	1000 to 1500 nM

Please go through the list and note IC50 for each compound.
1. CC(C)c1cnn2c(N[C@@H]3CCc4[nH]c5ccccc5c4C3)nc(-c3cncnc3)nc12
2. CC(C)c1cnn2c(N[C@H]3CCc4[nH]c5c(F)cc(F)cc5c4C3)nc(-c3cncc(F)c3)nc12 [I-139a]
3. Fc1cncc(-c2nc(N[C@@H]3CCc4[nH]c5ccccc5c4C3)c3nccn3n2)c1
4. Fc1cncc(-c2nc(N[C@H]3CCc4[nH]ccc4C3)c3ncccc3n2)c1 [I-252a]
5. CNC(=O)[C@@H](Cc1c[nH]c2ccccc12)Nc1cc(-c2cncc(F)c2)nc2c(C)cnn12
6. Fc1cncc(-c2nc(N[C@@H]3CCc4[nH]c5ccccc5c4C3)cc(N3CCCC3)n2)c1
7. CC(C)c1cnn2c(NCCc3c[nH]c4ccccc34)cc(-c3cncc(F)c3)nc12

OUTPUT:
1. < 500 nM
2. < 500 nM
3. < 500 nM
4. < 500 nM
5. > 1500 nM
6. > 1500 nM
7. < 500 nM

Would you mind giving IC50 for every compound in the list below?
1. CC(C)c1cnn2c(N[C@H]3CCc4[nH]ncc4C3)cc(-c3cncc(F)c3)nc12 (single isomer, unassigned) [I-42a]
2. CC(C)c1cnn2c(N[C@@H]3CCc4[nH]c5ccccc5c4C3)cc(-c3cccnc3)nc12
3. CC(C)c1cnn2c(NC3CCc4[nH]c5ccccc5c4C3)nc(-c3ccc(OC(F)(F)F)cc3)nc12 (centres unmarked)
4. N#Cc1cnn2c(N[C@@H]3CCc4[nH]c5ccccc5c4C3)nc(-c3cncc(F)c3)nc12

OUTPUT:
1: > 1500 nM; 2: > 1500 nM; 3: > 1500 nM; 4: < 500 nM

For each of the compounds below, state IC50.
1. Fc1cncc(-c2cc(NCCc3c[nH]c4ccccc34)n3ncc(C4CCCO4)c3n2)c1 (centres unmarked)
2. CC(C)c1cnn2c(NCCc3c[nH]c4c(F)cc(F)cc34)cc(-c3cncc(F)c3)nc12
3. Oc1ccc(CCNc2cc(-c3cncc(F)c3)nc3ccnn23)cc1

OUTPUT:
1. < 500 nM
2. < 500 nM
3. < 500 nM
